- Tested on: MCF7
- Assay Comment: Cytotoxicity against human MCF7 cells assessed as cell growth at 0.01 uM after 48 hrs by sulforhodamine B assay relative to control
- Assay type: functional
- Condition: MCF7, 48 h, read-out: Activity
Quantity Name: growth at 0.01 µM (%)

COc1ccc(C(=O)/C=C/c2cc(-c3cc(OC)c(OC)c(OC)c3)n[nH]2)cc1 : 101
COc1cc2c(cc1OC)C(=O)/C(=C/c1cc(-c3ccc4c(c3)OCO4)n[nH]1)C2 : 96
COc1ccc(-c2cc(/C=C/C(=O)c3cc(OC)c(OC)c(OC)c3)[nH]n2)cc1OC : 92
COc1ccc(C(=O)/C=C/c2cc(-c3cc(OC)c(OC)c(OC)c3)n[nH]2)cc1OC : 89

---

- Tested on: NCI-H322M
- Assay Comment: Cytotoxicity against human NCI-H322M cells assessed as cell growth at 100 uM after 48 hrs by sulforhodamine B assay relative to control
- Format: functional
- Condition: read-out: Activity
Recorded growth at 100 µM values for a group of molecules are listed next.
Quantity Name: growth at 100 µM

COc1ccc(-c2cc(/C=C/C(=O)c3ccc(N)cc3)[nH]n2)cc1 : -98%
COc1ccc(-c2cc(/C=C/C(=O)c3ccc(OC)c(OC)c3)[nH]n2)cc1 : -98%
COc1ccc(-c2cc(/C=C/C(=O)c3cc(OC)c(OC)c(OC)c3)[nH]n2)cc1OC : -91%
COc1cc(-c2cc(/C=C/C(=O)c3ccc(Cl)c(Cl)c3)[nH]n2)cc(OC)c1OC : 5%

---

- Tested on: RXF 393
- Assay Comment: Cytotoxicity against human RXF393 cells assessed as cell growth at 100 uM after 48 hrs by sulforhodamine B assay relative to control
- Format: functional
- Condition: RXF 393, 48 h, read-out: Activity
Quantity Name: growth at 100 µM (%)

COc1cc(-c2cc(/C=C/C(=O)c3ccc(N)cc3)[nH]n2)cc(OC)c1OC : -86
COc1ccc(-c2cc(/C=C/C(=O)c3ccc(N)cc3)[nH]n2)cc1 : -63
COc1ccc(C(=O)/C=C/c2cc(-c3ccc(OC)c(OC)c3)n[nH]2)cc1OC : -90
COc1cc(C(=O)/C=C/c2cc(-c3cc(OC)c(OC)c(OC)c3)n[nH]2)cc(OC)c1OC : -98
COc1cc(-c2cc(/C=C/C(=O)c3ccc(F)c(F)c3)[nH]n2)cc(OC)c1OC : -61
COc1ccc(-c2cc(/C=C/C(=O)c3ccc(N)cc3)[nH]n2)cc1OC : -95
COc1ccc(-c2cc(/C=C/C(=O)c3ccc(OC)c(OC)c3)[nH]n2)cc1 : -92
COc1ccc(C(=O)/C=C/c2cc(-c3cc(OC)c(OC)c(OC)c3)n[nH]2)cc1 : -93

---

- System: MCF7
- Assay Comment: Cytotoxicity against human MCF7 cells assessed as cell growth at 100 uM after 48 hrs by sulforhodamine B assay relative to control
- Assay type: functional
- Condition: MCF7, 48 h, read-out: Activity
Quantity Name: growth at 100 µM

COc1ccc(C(=O)/C=C/c2cc(-c3cc(OC)c(OC)c(OC)c3)n[nH]2)cc1 : -69%
COc1cc(-c2cc(/C=C/C(=O)c3ccc4c(c3)OCO4)[nH]n2)cc(OC)c1OC : 3%
COc1ccc(C(=O)/C=C/c2cc(-c3ccc(OC)c(OC)c3)n[nH]2)cc1OC : -40%
COc1ccc(-c2cc(/C=C/C(=O)c3ccc(OC)c(OC)c3)[nH]n2)cc1 : -100%
COc1cc(C(=O)/C=C/c2cc(-c3cc(OC)c(OC)c(OC)c3)n[nH]2)cc(OC)c1OC : -72%
COc1cc2c(cc1OC)C(=O)/C(=C/c1cc(-c3ccc4c(c3)OCO4)n[nH]1)C2 : -72%

---

- Test system: HT-29
- Assay Comment: Cytotoxicity against human HT-29 cells assessed as growth inhibition after 48 hrs by sulforhodamine B assay
- Type: functional
- Condition: HT-29, 48 h
Recorded LC50 values for a group of molecules are listed next.
Quantity Name: LC50

COc1cc(-c2cc(/C=C/C(=O)c3ccc(F)c(F)c3)[nH]n2)cc(OC)c1OC : 40.8 µM
COc1cc(-c2cc(/C=C/C(=O)c3ccc(Cl)c(Cl)c3)[nH]n2)cc(OC)c1OC : > 100 µM
COc1cc(-c2cc(/C=C/C(=O)c3ccc4c(c3)OCO4)[nH]n2)cc(OC)c1OC : 9.48 µM
COc1ccc(-c2cc(/C=C/C(=O)c3cc(OC)c(OC)c(OC)c3)[nH]n2)cc1OC : 5.75 µM
COc1cc(C(=O)/C=C/c2cc(-c3ccc4c(c3)OCO4)n[nH]2)cc(OC)c1OC : > 100 µM

---

Recorded growth at 100 µM values for a group of compounds are listed next.
- Tested on: UACC-62
- Assay Comment: Cytotoxicity against human UACC62 cells assessed as cell growth at 100 uM after 48 hrs by sulforhodamine B assay relative to control
- Type: functional
- Condition: UACC-62, 48 h, read-out: Activity
Quantity Name: growth at 100 µM (%)

COc1ccc(C(=O)/C=C/c2cc(-c3ccc(OC)c(OC)c3)n[nH]2)cc1OC : -49
COc1cc2c(cc1OC)C(=O)/C(=C/c1cc(-c3ccc4c(c3)OCO4)n[nH]1)C2 : -88
COc1cc(-c2cc(/C=C/C(=O)c3ccc4c(c3)OCO4)[nH]n2)cc(OC)c1OC : 22
COc1ccc(-c2cc(/C=C/C(=O)c3ccc(OC)c(OC)c3)[nH]n2)cc1 : -100
COc1ccc(-c2cc(/C=C/C(=O)c3ccc(N)cc3)[nH]n2)cc1OC : -86
COc1cc(-c2cc(/C=C/C(=O)c3ccc(F)c(F)c3)[nH]n2)cc(OC)c1OC : -81

---

- Tested on: A498
- Assay Comment: Cytotoxicity against human A498 cells assessed as growth inhibition after 48 hrs by sulforhodamine B assay
- Type: functional
- Condition: A498, 48 h
Quantity Name: LC50 (µM)

COc1ccc(-c2cc(/C=C/C(=O)c3ccc(N)cc3)[nH]n2)cc1 : 15.4
COc1ccc(-c2cc(/C=C/C(=O)c3cc(OC)c(OC)c(OC)c3)[nH]n2)cc1OC : 22.3
COc1cc(C(=O)/C=C/c2cc(-c3cc(OC)c(OC)c(OC)c3)n[nH]2)cc(OC)c1OC : 8.02

---

- Tested on: OVCAR-3
- Assay Comment: Cytotoxicity against human OVCAR3 cells assessed as growth inhibition after 48 hrs by sulforhodamine B assay
- Format: functional
- Condition: OVCAR-3, 48 h
# True = LC50 below 9 µM (exclusive); False = LC50 at/above 9 µM

COc1ccc(C(=O)/C=C/c2cc(-c3cc(OC)c(OC)c(OC)c3)n[nH]2)cc1 : True
COc1ccc(C(=O)/C=C/c2cc(-c3ccc4c(c3)OCO4)n[nH]2)cc1OC : False
COc1ccc(-c2cc(/C=C/C(=O)c3cc(OC)c(OC)c(OC)c3)[nH]n2)cc1OC : True
COc1ccc(-c2cc(/C=C/C(=O)c3ccc(N)cc3)[nH]n2)cc1 : True

---

- Tested on: A549
- Assay Comment: Cytotoxicity against human A549/ATCC cells assessed as growth inhibition after 48 hrs by sulforhodamine B assay
- Format: functional
- Condition: A549, 48 h
Quantity Name: LC50 (concentration giving 50% net cell kill)

COc1cc2c(cc1OC)C(=O)/C(=C/c1cc(-c3ccc4c(c3)OCO4)n[nH]1)C2 : 37.1 µM
COc1cc(-c2cc(/C=C/C(=O)c3ccc4c(c3)OCO4)[nH]n2)cc(OC)c1OC : > 100 µM
COc1ccc(-c2cc(/C=C/C(=O)c3ccc(N)cc3)[nH]n2)cc1OC : 45.2 µM
COc1cc(C(=O)/C=C/c2cc(-c3ccc4c(c3)OCO4)n[nH]2)cc(OC)c1OC : 30.1 µM
COc1cc(-c2cc(/C=C/C(=O)c3ccc(Cl)c(Cl)c3)[nH]n2)cc(OC)c1OC : > 100 µM

---

Recorded growth at 10 µM values for a group of molecules are listed next.
- Tested on: RXF 393
- Assay Comment: Cytotoxicity against human RXF393 cells assessed as cell growth at 10 uM after 48 hrs by sulforhodamine B assay relative to control
- Format: functional
- Condition: RXF 393, 48 h, read-out: Activity
Quantity Name: growth at 10 µM (%)

COc1ccc(C(=O)/C=C/c2cc(-c3ccc4c(c3)OCO4)n[nH]2)cc1OC : -39
COc1cc(-c2cc(/C=C/C(=O)c3ccc(N)cc3)[nH]n2)cc(OC)c1OC : -64
COc1cc(C(=O)/C=C/c2cc(-c3ccc4c(c3)OCO4)n[nH]2)cc(OC)c1OC : -76
COc1ccc(-c2cc(/C=C/C(=O)c3cc(OC)c(OC)c(OC)c3)[nH]n2)cc1OC : -80
